Give growth for every item shown.
- System: SK-MEL-2 melanoma
- Protocol Text: NCI-60 one-dose screen, 48 h (100 = growth as untreated, 0 = no growth, -100 = all killed)
- Cond: 10 µM unless noted
About 83,000 compounds went through this panel and 20% of them were active in at least one assay; those are over-represented in the sample as a whole.
# output: bare number, implied unit %

get_value(item= COc1ccc(N(C)c2nc(Cl)nc3ccn(C)c23)cc1 , readout=growth) returns 19.3

get_value(item= O=C(/C(=C/c1ccc([N+](=O)[O-])cc1)SCc1ccccc1)c1ccc(Cl)cc1 , readout=growth) returns 84.5

get_value(item= C=C(C)[C@@H]1CC[C@]2(C(=O)OCCOCCOCC[P+](c3ccccc3)(c3ccccc3)c3ccccc3)CC[C@]3(C)[C@H](CC[C@@H]4[C@@]5(C)CC[C@H](OC(C)=O)C(C)(C)[C@@H]5CC[C@]43C)[C@@H]12 , readout=growth) returns -75.6

get_value(item= Cc1c(Cl)cccc1NC(=O)c1sc2nc3c(cc2c1N)CCCCC3 , readout=growth) returns 48.5

get_value(item= Nc1ccc(C2=NN(C(=O)c3cc(-c4ccc(Cl)cc4)nc4ccccc34)C(c3ccc(Cl)cc3)C2)cc1 (centres undefined) , readout=growth) returns 34.7

get_value(item= C#C[C@@]1(O)[C@@H](CO)O[C@@H](n2cc(Br)c3c(N)ncnc32)[C@@H]1O , readout=growth) returns -24.9

get_value(item= Nc1c(C(=O)Nc2cccc3ccccc23)sc2nc3c(cc12)CCCCC3 , readout=growth) returns 50.5

get_value(item= CCCCCOC(=O)c1ccccc1O , readout=growth) returns 111

get_value(item= O=C1CC(c2ccc(O)c(O)c2)Oc2cc(O)c([C@@H]3O[C@H](CO)[C@@H](O)[C@H](O)[C@H]3O)c(O)c21 (some centres undefined) , readout=growth) returns 104
